molecular target: Muscarinic acetylcholine receptor M4 (Homo sapiens); experiment: M4-linked GIRK flux change, two-sided – cell-based, HEK293 M4/GIRK, thallium flux, BTC-AM, M4 allosteric agonist project, primary screen (AID 625); settings: at 10 µM, actives lie on both sides;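 also: thallium influx through GIRK channels coupled to M4 in HEK293 cells with BTC-AM dye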
Below is a list of entries, each paired with its recorded fluorescence slope value.
Returns: the value as a bare number; no unit string appended.

[[record]]
compound = "CC1CCCCN1CCNC(=O)c1ccc2c(=O)n(CCc3ccccc3)c(=O)[nH]c2c1 (configuration not stated)"
test_system = "Muscarinic acetylcholine receptor M4 (Homo sapiens)"
measured_value = 0.00585

[[record]]
compound = "CC(C(=O)N1CCCCC1)n1sc2ccccc2c1=O (configuration not stated)"
test_system = "Muscarinic acetylcholine receptor M4 (Homo sapiens)"
measured_value = 0.00498


Consider CCOC(=O)C1C(=O)NC(SCC(=O)Nc2nccs2)=C(C#N)C1c1ccccc1OCC (configuration not stated) . Its measured fluorescence slope is 0.00515

Consider O=C(CCCn1ncn2c(cc3occc32)c1=O)N1CCc2ccccc2C1 . Its measured fluorescence slope is 0.00605

* * *

experiment: blockers of RIG-like receptor reporter activation – cell-based, Sendai virus stimulus, luciferase, 10K MLSCN set, TLR/RLR signaling modifier project, primary screen (AID 602276); settings: HEK293 RL24 IRF3 luciferase reporter, at 10 µM, active compounds read high;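 also: firefly luciferase from ISG56 promoter only with Renilla not read in this screen; 0% = Sendai virus plus DMSO and 100% = medium plus DMSO without virus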
Listed next: entries and their corresponding inhibition.
Express it in %; write the number only.

[[record]]
compound = "Cc1noc(NS(=O)(=O)c2ccc(NC(=O)CCC3CCCC3)cc2)c1C"
uom = "%"
measured_value = 19.6

[[record]]
compound = "CC(C)=CCC(C)(C)C1OCCN1C(=O)c1ccccc1 (stereo not given)"
uom = "%"
measured_value = 8.82

[[record]]
compound = "c1ccc(-c2noc(-c3cccnc3)n2)nc1"
uom = "%"
measured_value = 0.927

[[record]]
compound = "COc1ccccc1-c1nc(C#N)c(N2CCN(c3ccccc3)CC2)o1"
uom = "%"
measured_value = 15.8


Form: compound = CCn1cc(C(=O)NCCCOC)c(=O)c2cc(S(=O)(=O)N(C)C)ccc21 ; inhibition = 4.09

* * *

test: TLR3 IRF3 reporter activation blockers – cell-based, poly I:C stimulus, luciferase, 10K MLSCN set, primary screen (AID 602277); settings: HEK293-TLR3 RL24 IRF3 luciferase reporter, at 10 µM, active compounds read high
Classification field: enter TRUE for inhibition values not below 20%, FALSE for values below it.

These solved cases illustrate the format of a correct answer.
[[record]]
compound = "O=C(CN1CCN(Cc2ccccc2)CC1)NCC1COc2ccccc2O1 (stereo unspecified)"
assigned_class = "TRUE"

[[record]]
compound = "CC1CCCC(NC(=O)CSc2ncccc2C(=O)O)C1C (stereo unspecified)"
assigned_class = "TRUE"

[[record]]
compound = "Cc1c(NC(=O)CN2c3cccc4cccc(c34)S2(=O)=O)c(=O)n(-c2ccccc2)n1C"
assigned_class = "FALSE"

[[record]]
compound = "O=C(CCSc1ccccc1)Nc1ccc(S(=O)(=O)N2CCOCC2)cc1"
assigned_class = "FALSE"

[[record]]
compound = "Cc1cccc(C)c1-n1nnnc1SCSc1nnnn1-c1c(C)cccc1C"
assigned_class = "FALSE"


Please find the next compound below.
Lookup: Does inhibition meet or surpass 20% for COc1cccc(CNC(=O)C2CCN(c3cnccn3)CC2)c1 ?
Found: FALSE
